TEST_TARGET: α₁ receptors
PROCEDURE_TEXT: [3H]prazosin binding (α1 receptors), rat cerebral cortex membranes
PROTOCOL_CONDITIONS: rat cerebral cortex crude membranes, [3H]prazosin 0.35 nM, 25°C 30 min; read-out: Receptor Binding IC50 (nM) α1
Measured IC50 by item
Note: unit nM is implicit; provide only the numeric part.

# example entries with known answers
{"columns": ["COMPOUND", "MEASURED_QUANTITY", "VALUE"],
 "data": [
  ["COc1ccccc1N1CCN(CCCNC(=O)c2cccc3c(=O)c(C)c(-c4ccc(C(F)(F)F)cc4)oc23)CC1 [Example 99, methanesulphonate sesquihydrate]", "IC50", 44],
  ["COc1ccccc1N1CCN(CCCCNC(=O)c2cccc3c(=O)c(C)c(-c4ccccc4)oc23)CC1.CS(=O)(=O)O", "IC50", 25],
  ["CS(=O)(=O)O.Cc1c(-c2ccccc2)oc2c(C(=O)NCCCN3CCC(c4ccccc4)CC3)cccc2c1=O", "IC50", 35]
]}

Q: Please give the measured IC50 for this compound: COc1ccccc1N1CCN(CCC(O)c2cccc3c(=O)c(C)c(-c4ccccc4)oc23)CC1.Cl (stereo not shown) [Example 20, hydrochloride]
Result: 169

* * *

TEST_TARGET: 5HT1A receptors (Rattus norvegicus)
Construct: Rat hippocampi were homogenized; from tissue; host or cells: rat hippocampus membranes
Sequence (P19327 whole entry): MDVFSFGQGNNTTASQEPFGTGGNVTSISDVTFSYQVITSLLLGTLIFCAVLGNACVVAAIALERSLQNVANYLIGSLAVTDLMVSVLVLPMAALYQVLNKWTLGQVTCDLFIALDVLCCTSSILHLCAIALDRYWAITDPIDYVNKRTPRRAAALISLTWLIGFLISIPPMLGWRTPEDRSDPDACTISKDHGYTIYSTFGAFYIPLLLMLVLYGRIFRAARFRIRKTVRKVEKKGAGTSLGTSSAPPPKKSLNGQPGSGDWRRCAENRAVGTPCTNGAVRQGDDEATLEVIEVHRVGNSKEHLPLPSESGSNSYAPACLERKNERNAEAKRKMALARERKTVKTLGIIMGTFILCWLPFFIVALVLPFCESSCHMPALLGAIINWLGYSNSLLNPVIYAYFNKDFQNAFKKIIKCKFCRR
PROCEDURE_TEXT: [3H]8-OH-DPAT binding (5HT1A receptors), rat hippocampus membranes
PROTOCOL_CONDITIONS: rat hippocampus crude membranes, [3H]8-OH-DPAT 1.0 nM, 25°C 30 min; read-out: Receptor Binding IC50 (nM) 5-HT1a
Where a name gives a salt, the structure may show the parent alone.
MEASURED_QUANTITY: log10 of IC50 (log10 of the value in nM)
Record value = log10 of IC50 given in nM.

Solved cases below.
{"columns": ["MOLECULE", "log10 of IC50"],
 "data": [
  ["COc1ccccc1OCCNCCCNC(=O)c1cccc2c(=O)c(C)c(-c3ccccc3)oc12.Cl [Example 14, hydrochloride]", 0.78],
  ["COc1ccccc1N1CCN(CCCC(=O)c2cccc3c(=O)c(C)c(-c4ccccc4)oc23)CC1.CS(=O)(=O)O [methanesulphonate]", 1.92],
  ["CCOc1ccccc1OCCNCCOCc1cccc2c(=O)c(C)c(-c3ccccc3)oc12.Cl [Example 28, hydrochloride]", 1.98],
  ["Cc1c(-c2ccccc2)oc2c(C(=O)NCCCN3CCN(c4ccccc4)CC3)cccc2c1=O [Example 15, monohydrochloride hemihydrate]", 2.12]
]}

Q: // query log10 of IC50 value for entry "COc1ccccc1N1CCN(CCCSc2cccc3c(=O)c(C)c(-c4ccccc4)oc23)CC1"
Result: 1.36

Q: Look up log10 of IC50: "CS(=O)(=O)O.Cc1c(-c2ccccc2)oc2c(C(=O)NCCCN3CCC(c4ccccc4)CC3)cccc2c1=O"
Result: 2.16

Q: // log10 of IC50 lookup, key: COc1ccccc1N1CCN(CCN(Cc2cccc3c(=O)c(C)c(-c4ccccc4)oc23)C(C)=O)CC1.Cl [Example 24, hydrochloride]
Result: 2.33

Q: Find the recorded log10 of IC50 belonging to COc1ccccc1N1CCN(CCCCc2cccc3c(=O)c(C)c(-c4ccccc4)oc23)CC1.CS(=O)(=O)O [Example 53, methanesulphonate] and report it.
Result: 1.61

Q: Given "COc1ccccc1N1CCN(CCCCNC(=O)c2cccc3c(=O)c(C)c(-c4ccccc4)oc23)CC1.CS(=O)(=O)O" , state its recorded log10 of IC50.
Result: 1.65

Q: Given the entry "COc1ccccc1N1CCN(CCNC(=O)/C=C/c2cccc3c(=O)c(C)c(-c4ccccc4)oc23)CC1" , report its measured log10 of IC50.
Result: 2.05

* * *

PROCEDURE_TEXT: Acute toxicity in mice after intraperitoneal and oral administration
PROTOCOL_CONDITIONS: mouse, in vivo, ip; female albino Swiss mice, intraperitoneal, mortality recorded 7 days after administration; read-out: Acute Toxicity in Mice LD50 (mg/kg) i.p.
Structures can show the parent of a compound that is named as a salt.
MEASURED_QUANTITY: LD50 at 168 h (mg/kg)
Reply with just the number (in mg/kg).

Q: Look at this molecule and give its reported LD50 at 168 h. "COc1ccccc1N1CCN(CCCCc2cccc3c(=O)c(C)c(-c4ccccc4)oc23)CC1.CS(=O)(=O)O"
Result: 127

Q: For the molecule shown here, "COc1ccccc1N1CCN(CCCNC(=O)c2cccc3c2OCCC3=O)CC1.CS(=O)(=O)O" , give the reported LD50 at 168 h.
Result: 237

Q: Which LD50 at 168 h reading was recorded for the molecule "CCOc1ccccc1OCCNCCOCc1cccc2c(=O)c(C)c(-c3ccccc3)oc12.Cl" ?
Result: 203

Q: Param item = "COc1ccccc1N1CCN(CCCCCOc2cccc3c(=O)c(C)c(-c4ccccc4)oc23)CC1.Cl" ; retrieve measured LD50 at 168 h.
Result: 459

Q: Which LD50 at 168 h value belongs to "COc1ccccc1OCCNCCCNC(=O)c1cccc2c(=O)c(C)c(-c3ccccc3)oc12.Cl" ?
Result: 140

Q: Sample "COc1ccccc1N1CCN(CCCNc2cccc3c(=O)c(C)c(-c4ccccc4)oc23)CC1" — what was its LD50 at 168 h?
Result: 399

Q: Sample Cc1c(-c2ccccc2)oc2c(C(=O)NCCCN3CCN(c4ccccc4)CC3)cccc2c1=O [Example 15, monohydrochloride hemihydrate] — what was its LD50 at 168 h?
Result: 306

* * *

TEST_TARGET: α₁ receptors
PROCEDURE_TEXT: [3H]prazosin binding (α1 receptors), rat cerebral cortex membranes
PROTOCOL_CONDITIONS: rat cerebral cortex crude membranes, [3H]prazosin 0.35 nM, 25°C 30 min; read-out: Receptor Binding IC50 (nM) α1
Counter-ions that a name gives are not always drawn.
MEASURED_QUANTITY: log10 IC50 (log10 of the value in nM)
// stored as log10 of IC50 expressed in nM

Worked cases, answers included:
{"columns": ["MOLECULE", "log10 IC50"],
 "data": [
  ["COc1ccccc1N1CCN(CCCNC(=O)c2cc([N+](=O)[O-])cc3c(=O)c(C)c(-c4ccccc4)oc23)CC1 [Example 93]", 1.67],
  ["COc1ccccc1N1CCN(CCCC[S+]([O-])c2cccc3c(=O)c(C)c(-c4ccccc4)oc23)CC1.CS(=O)(=O)O (stereo not shown) [Example 73, methanesulphonate]", 0.78],
  ["COc1ccccc1N1CCN(CCCNC(=O)c2cccc3c(=O)cc(-c4ccccc4)oc23)CC1 [Example 86]", 1.68],
  ["COc1ccccc1N1CCN(CC(=O)N(C)Cc2cccc3c(=O)c(C)c(-c4ccccc4)oc23)CC1 [Example 26, hydrochloride hydrate]", 2.43],
  ["COc1ccccc1N1CCN(CCNS(=O)(=O)c2cccc3c(=O)c(C)c(-c4ccccc4)oc23)CC1.Cl [Example 48, hydrochloride]", 2.02],
  ["COc1ccccc1N1CCN(CCCN(C)c2cccc3c(=O)c(C)c(-c4ccccc4)oc23)CC1 [Example 35, hydrochloride hemihydrate]", 1.18],
  ["Cc1c(-c2ccccc2)oc2c(C(=O)OCCCN3CCN(c4ccccc4)CC3)cccc2c1=O.Cl.Cl [Example 8, dihydrochloride]", 1.82],
  ["COc1ccccc1N1CCN(CCNc2cccc3c(=O)c(C)c(-c4ccccc4)oc23)CC1.Cl.Cl [Example 32, dihydrochloride]", 2.08],
  ["COc1ccccc1N1CCN(CCCCCOc2cccc3c(=O)c(C)c(-c4ccccc4)oc23)CC1.Cl [Example 42, hydrochloride]", 2.05],
  ["Cc1c(-c2ccccc2)oc2c(C(=O)NCCCN3CCN(c4ccccc4O)CC3)cccc2c1=O [Example 59]", 0.70]
]}

Q: Can you look up the measured log10 IC50 of COc1ccccc1N1CCN(CCCCOc2cccc3c(=O)c(C)c(-c4ccccc4)oc23)CC1.Cl.Cl [dihydrochloride] for me?
Result: 1.63

Q: // query log10 IC50 value for entry COc1ccccc1N1CCN(CCN(C)C(=O)c2cccc3c(=O)c(C)c(-c4ccccc4)oc23)CC1.Cl [Example 16, monohydrochloride]
Result: 2.34

Q: Reported log10 IC50, molecule COc1ccccc1N1CCN(CCN(C)S(=O)(=O)c2cccc3c(=O)c(C)c(-c4ccccc4)oc23)CC1.Cl [Example 49, hydrochloride] : ____
Result: 2.18

* * *

Items are presented alongside their recorded LD50 at 168 h.
PROCEDURE_TEXT: Acute toxicity in mice after intraperitoneal and oral administration
PROTOCOL_CONDITIONS: mouse, in vivo, ip; female albino Swiss mice, intraperitoneal, mortality recorded 7 days after administration; read-out: Acute Toxicity in Mice LD50 (mg/kg) i.p.
Where a name gives a salt, the structure may show the parent alone.

Completed entries (count: 2):
{"columns": ["MOLECULE", "LD50 at 168 h"],
 "data": [
  ["CCOc1ccccc1N1CCN(CC(O)c2cccc3c(=O)c(C)c(-c4ccccc4)oc23)CC1.Cl (stereo not drawn) [Example 19]", "> 1000 mg/kg"],
  ["COc1ccccc1N1CCN(CCO/N=C/c2cccc3c(=O)c(C)c(-c4ccccc4)oc23)CC1 [Example 70]", "> 500 mg/kg"]
]}

Q: Form field: reported LD50 at 168 h of COc1ccccc1N1CCN(CCC(=O)Nc2cccc3c(=O)c(C)c(-c4ccccc4)oc23)CC1.Cl [Example 37]
Result: > 500 mg/kg

Q: // LD50 at 168 h lookup, key: COc1ccccc1N1CCN(CCOC(=O)/C=C/c2cccc3c(=O)c(C)c(-c4ccccc4)oc23)CC1 [Example 79]
Result: > 500 mg/kg

Q: Requested field: LD50 at 168 h. Item: COc1ccccc1N1CCN(CC(=O)N(C)Cc2cccc3c(=O)c(C)c(-c4ccccc4)oc23)CC1 [Example 26, hydrochloride hydrate]
Result: > 500 mg/kg

Q: # get_value(readout='LD50 at 168 h', item= COc1ccccc1N1CCN(CCN(Cc2cccc3c(=O)c(C)c(-c4ccccc4)oc23)C(C)=O)CC1.Cl [Example 24] )
Result: > 1000 mg/kg

All values here come from patent EP0558245A1.
